tested on: UACC-257 melanoma; assay: NCI tumour cell line growth inhibition, 48 h

>  <molecule>
COc1cc(C(=O)/C=C/c2sc(Cl)nc2Cl)cc(OC)c1OC

>  <GI50>
2.01 µM

$$$$
>  <molecule>
CNC(=O)c1cc(Oc2ccc3nc(NC(=O)Nc4ccc(Cl)c(C(F)(F)F)c4)sc3c2)ccn1

>  <GI50>
3.37 µM

$$$$
>  <molecule>
CC1=C(C#N)C23C(=O)c4ccccc4C(O)=C2C(=O)C=CC3(O)N1Cc1ccccc1 (stereo not drawn)

>  <GI50>
35 µM

$$$$
>  <molecule>
O=C(Nc1ccc(F)cc1F)c1cc(I)ccc1O

>  <GI50>
2.09 µM

$$$$
>  <molecule>
CN(C)c1ccc(-c2cc(-c3ccc(Nc4nc(Nc5ccc(Cl)cc5)nc(Nc5ccc(Cl)cc5)n4)cc3)no2)cc1

>  <GI50>
9.28 µM

$$$$
>  <molecule>
O=C(CN1CCN(c2cc3c(cc2F)c(=O)c(C(=O)N/N=C/c2ccccc2O)cn3C2CC2)CC1)N/N=C\c1ccccc1O

>  <GI50>
0.912 µM

$$$$
>  <molecule>
COc1ccc2c(c1)C(=O)/C(=C/c1ccc(OCC(=O)Nc3nccs3)cc1)O2

>  <GI50>
18 µM

$$$$
>  <molecule>
CC(C)c1ccc(C(C)C(=O)N(CC2=C(C(C)c3ccccn3)c3ccccc3C2)C(C)C)cc1 (stereo not drawn)

>  <GI50>
3.43 µM

$$$$
>  <molecule>
COc1cc(/C=C/c2cc(/C=C/c3ccc(O)c(OC)c3)n(C(=O)Nc3ccc(F)cc3)n2)ccc1O

>  <GI50>
2.17 µM

$$$$
>  <molecule>
CC(=O)[O][Hg][c]1c(N)c(C)cc(C)c1F

>  <GI50>
1.51 µM

$$$$
>  <molecule>
CCOC(=O)Nc1nc2ccc(OCC)cc2s1

>  <GI50>
> 100 µM

$$$$
>  <molecule>
Cn1ccnc1C(=O)/C=C/c1ccc(CC(=O)Nc2ccc(Br)cc2)cc1

>  <GI50>
15.6 µM

$$$$
>  <molecule>
CCc1ccc2c(c1)C(=O)c1c-2n(CCCBr)c(=O)c2cc([N+](=O)[O-])ccc12

>  <GI50>
> 50 µM

$$$$

###

tested on: NCI-H460 lung; assay: NCI tumour cell line growth inhibition, 48 h

>  <compound>
COc1ccc(NC(=O)c2cc(OC)cc(OC)c2)cc1

>  <comparator>
>

>  <TGI / µM>
100

$$$$
>  <compound>
O=[N+]([O-])c1cccc2nc3ccccc3c(NCCCCNc3c4ccccc4nc4cccc([N+](=O)[O-])c34)c12

>  <comparator>
=

>  <TGI / µM>
0.0574

$$$$
>  <compound>
C/C=C/C(C#N)(/C=C/c1ccccc1)OP1(=O)OC(c2ccccc2)C(C)N1C (stereo not given)

>  <comparator>
=

>  <TGI / µM>
33.8

$$$$
>  <compound>
N/C(=N\N=C/c1ccc(O)c(O)c1O)NO

>  <comparator>
=

>  <TGI / µM>
32.4

$$$$
>  <compound>
COc1ccc(/C=c2/sc3n(c2=O)C(c2ccccc2)C2(O)CCCCC2N=3)cc1 (stereo not given)

>  <comparator>
>

>  <TGI / µM>
12.5

$$$$

###

system: MOLT-4 leukemia; assay: NCI tumour cell line growth inhibition, 48 h
Measured TGI accompanies every entry in the list below.

>  <compound>
N/C(=N\N=C/c1ccc(O)c(O)c1O)NO

>  <TGI>
> 66.6 µM

$$$$
>  <compound>
CC1OC(OC2C(O[C@H]3CC[C@@H]4C(=CC[C@@H]5[C@@]4(C)C(=O)C[C@]4(C)[C@@H]([C@H](C)CC[C@@H](O)C(C)(C)O)CC[C@@]54C)C3(C)C)OC(CO)C(O)C2O)C(O)C(O)C1O (stereo partly specified)

>  <TGI>
> 100 µM

$$$$
>  <compound>
Nc1ncc(Br)c(NCC2(CO)CCC2)n1

>  <TGI>
> 100 µM

$$$$
>  <compound>
CCCCCCCC(=O)SCC/C=C/[C@@H]1CC(=O)NCc2cccc(n2)C2=N[C@@](C)(CS2)C(=O)N[C@@H](C(C)C)C(=O)N1

>  <TGI>
> 33.3 µM

$$$$
>  <compound>
Cc1c2n(c(=O)[nH]c1=O)C1OC(CO)C(O2)C1N=[N+]=[N-] (stereo unspecified)

>  <TGI>
> 100 µM

$$$$
>  <compound>
NC(N)=Nc1ccc(-c2ccc(N=C(N)N)cc2)cc1

>  <TGI>
> 100 µM

$$$$
>  <compound>
Cc1cccc2oc3c(CC(=O)O)cccc3c(=O)c12

>  <TGI>
> 100 µM

$$$$
>  <compound>
C=C1C[C@@H]2CC[C@@]34CC5O[C@H]6C(O[C@H]7CC[C@H](CC(=O)O[C@@H]8[C@@H](C)[C@@H]9O[C@@H]%10C[C@]%11(C[C@@H]%12O[C@]%13(C[C@H](C)[C@@H]%14O[C@@H]%15CC(C(O)CO)O[C@@H]%15C[C@@H]%14O%13)C[C@H](C)[C@@H]%12O%11)O[C@@H]%10C[C@@H]9O[C@H]8CC8O[C@@H](CC[C@@H]1O2)C[C@@H](C)C8(O)CO)O[C@@H]7[C@@H]6O3)[C@H]5O4 (stereo partly specified)

>  <TGI>
> 1 µM

$$$$
>  <compound>
COc1ccc(-n2/c(=N/C(=S)N(C)C)ss/c2=N\C(=S)N(C)C)cc1

>  <TGI>
> 100 µM

$$$$
>  <compound>
N#CC(C#N)=C1C(=Cc2ccc(OCCCCCCCCCCSSCCCCCCCCCCOc3ccc(C=C4C(=C(C#N)C#N)c5ccccc5C4=C(C#N)C#N)cc3)cc2)C(=C(C#N)C#N)c2ccccc21

>  <TGI>
80 µM

$$$$
>  <compound>
COc1ccc2c(c1)CC[C@@H]1[C@@H]2CC[C@]2(C)C(=O)/C(=C/c3ccc(N(C)C)cc3)C[C@@H]12

>  <TGI>
> 100 µM

$$$$
>  <compound>
Cc1sc(Nc2ccc(Nc3nc(-c4ccccc4)c(C)s3)cc2)nc1-c1ccccc1

>  <TGI>
> 100 µM

$$$$
>  <compound>
CC(=O)NC1=C(NCC(C)(C)C)C(=O)c2ccccc2C1=O

>  <TGI>
> 100 µM

$$$$
>  <compound>
C[C@@H](CS(C)(=O)=O)Nc1ncc2cc(Oc3ccc(F)cc3F)c(=O)n(C)c2n1

>  <TGI>
> 25 µM

$$$$
>  <compound>
CC1=NN(c2nc(N)nc(/C(C#N)=C/c3ccccc3O)n2)C(C)(C)C1

>  <TGI>
> 100 µM

$$$$
>  <compound>
O=C1N(C2CCCCC2)C(=O)N1C1CCCCC1

>  <TGI>
10.2 µM

$$$$

###

test system: SF-268 CNS; experiment: NCI tumour cell line growth inhibition, 48 h

>  <molecule>
C=C(CNCCO)[C@@H]1CC[C@]2(CO)CC[C@]3(C)[C@H](CC[C@@H]4[C@@]5(C)CCC(N)C(C)(C)[C@@H]5CC[C@]43C)[C@@H]12 (stereo partly drawn)

>  <study-target>
SF-268 CNS

>  <TGI>
10.3 µM

$$$$
>  <molecule>
Oc1ccc(Cl)cc1-c1cc(-c2ccccc2Cl)[nH]n1

>  <study-target>
SF-268 CNS

>  <TGI>
> 100 µM

$$$$
>  <molecule>
CC(=O)c1cccc(Nc2nc3ccccc3c3occc23)c1

>  <study-target>
SF-268 CNS

>  <TGI>
86.7 µM

$$$$
>  <molecule>
COc1ccc(C2=CSc3cc(Cl)c(C)cc3S(=O)(=O)N2C(C)=O)cc1

>  <study-target>
SF-268 CNS

>  <TGI>
> 100 µM

$$$$
>  <molecule>
O=C(CSC(=S)N1CCCCC1)Nc1nc2c(s1)CCCC2

>  <study-target>
SF-268 CNS

>  <TGI>
> 100 µM

$$$$
>  <molecule>
CCc1ccc2c(c1)C(=O)c1c-2n(CCCBr)c(=O)c2cc([N+](=O)[O-])ccc12

>  <study-target>
SF-268 CNS

>  <TGI>
> 50 µM

$$$$
>  <molecule>
O=C1OCN(c2ccccc2)C12CCN(Cc1ccccc1)CC2

>  <study-target>
SF-268 CNS

>  <TGI>
> 100 µM

$$$$
>  <molecule>
O=C(C1OC1c1ccc(Cl)cc1)C12CC3CC(CC(C3)C1)C2 (stereo not drawn)

>  <study-target>
SF-268 CNS

>  <TGI>
53 µM

$$$$

###

Recorded TGI values for a group of compounds are listed next.
tested on: OVCAR-8 ovarian; experiment: NCI tumour cell line growth inhibition, 48 h

>  <compound>
N#Cc1cccc2c1Sc1ccccc1N2

>  <study-target>
OVCAR-8 ovarian

>  <TGI>
> 100 µM

$$$$
>  <compound>
Nc1ccc(C(=O)N/C(=C\c2ccc3c(c2)OCO3)c2nc3[nH]c(=S)[nH]c(=O)c3[nH]2)cc1

>  <study-target>
OVCAR-8 ovarian

>  <TGI>
> 100 µM

$$$$
>  <compound>
C=C(CNCCO)[C@@H]1CC[C@]2(CO)CC[C@]3(C)[C@H](CC[C@@H]4[C@@]5(C)CCC(N)C(C)(C)[C@@H]5CC[C@]43C)[C@@H]12 (stereo partly specified)

>  <study-target>
OVCAR-8 ovarian

>  <TGI>
3.74 µM

$$$$
>  <compound>
CSc1ccc(/C=C2\CN(C)C/C(=C\c3ccc(SC)cc3)C2=O)cc1

>  <study-target>
OVCAR-8 ovarian

>  <TGI>
39.6 µM

$$$$
>  <compound>
Cc1cc2nc(C(Cl)Cl)nc(-c3ccc(Cl)cc3)n2n1

>  <study-target>
OVCAR-8 ovarian

>  <TGI>
> 100 µM

$$$$
>  <compound>
CCOC(=O)C1=C(C)CC2C(=O)OC(=O)C2C1(C)C (stereo unspecified)

>  <study-target>
OVCAR-8 ovarian

>  <TGI>
> 100 µM

$$$$
